Test: Resistance index, ratio of IC50 for human A2780AD cells to IC50 for human A2780 cells
Assay type: functional
Reported Ratio IC50 values follow for various compounds
Measured Metric: Ratio IC50

# Query Smiles, Value Operator, Reported Result
measured = [
    ("CC(=O)O[C@@]1([C@@H]2/C(C)=C(/O)C(=O)C3=C(C)[C@@H](OC(=O)[C@H](O)[C@H](CC(C)C)NC(=O)OC(C)(C)C)C[C@@](O)([C@H]2OC(=O)c2ccccc2)C3(C)C)CO[C@@H]1CCO", "=", 207),
    ("CC(=O)O[C@@]12CO[C@@H]1CCOC/C=C/CO/C1=C(\\C)[C@@H]2[C@H](OC(=O)c2ccccc2)[C@]2(O)C[C@H](OC(=O)[C@H](O)[C@@H](NC(=O)c3ccccc3)c3ccccc3)C(C)=C(C1=O)C2(C)C", "=", 77.1),
    ("CC(=O)O[C@@]1([C@@H]2/C(C)=C(/O)C(=O)C3=C(C)[C@@H](OC(=O)[C@H](O)[C@H](CC(C)C)NC(=O)OC(C)(C)C)C[C@@](O)([C@H]2OC(=O)c2cccc(N=[N+]=[N-])c2)C3(C)C)CO[C@@H]1CCO", "=", 23.4),
    ("CC(=O)O[C@@]12CO[C@@H]1CCOC/C=C\\CCO/C1=C(\\C)[C@@H]2[C@H](OC(=O)c2ccccc2)[C@]2(O)C[C@H](OC(=O)[C@H](O)[C@@H](NC(=O)c3ccccc3)c3ccccc3)C(C)=C(C1=O)C2(C)C", "=", 87.4),
    ("CC(=O)O[C@@]12CO[C@@H]1CCOCCCCCO/C1=C(\\C)[C@@H]2[C@H](OC(=O)c2ccccc2)[C@]2(O)C[C@H](OC(=O)[C@H](O)[C@@H](NC(=O)c3ccccc3)c3ccccc3)C(C)=C(C1=O)C2(C)C", "=", 55),
    ("CC(=O)O[C@@]1([C@@H]2/C(C)=C(/O)C(=O)C3=C(C)[C@@H](OC(=O)[C@H](O)[C@@H](NC(=O)c4ccccc4)c4ccccc4)C[C@@](O)([C@H]2OC(=O)c2ccccc2)C3(C)C)CO[C@@H]1CCO", ">", 35.4),
    ("COc1cccc(C(=O)O[C@H]2[C@H]([C@]3(OC(C)=O)CO[C@@H]3CCO)/C(C)=C(/O)C(=O)C3=C(C)[C@@H](OC(=O)[C@H](O)[C@H](CC(C)C)NC(=O)OC(C)(C)C)C[C@]2(O)C3(C)C)c1", "=", 279),
]

* * *

Test: Resistance index, ratio of IC50 for human A2780AD cells to IC50 for human A2780 cells
Assay type: functional

# Query Smiles, Ratio IC50
data = [
    ("CC(=O)O[C@@]12CO[C@@H]1CCOC/C=C/CO/C1=C(\\C)[C@@H]2[C@H](OC(=O)c2cccc(N=[N+]=[N-])c2)[C@]2(O)C[C@H](OC(=O)[C@H](O)[C@@H](NC(=O)c3ccccc3)c3ccccc3)C(C)=C(C1=O)C2(C)C", 11.4),
]

* * *

Tested on: KB
Test: Cytotoxicity against human KB cells assessed as decrease in cell viability after 48 hrs by MTT assay
Assay type: functional, cell-based
Measured Metric: IC50 (nM)

# Query Smiles, Reported Result
records = [
    ("CC(=O)O[C@@]1([C@@H]2/C(C)=C(/O)C(=O)C3=C(C)[C@@H](OC(=O)[C@H](O)[C@H](CC(C)C)NC(=O)OC(C)(C)C)C[C@@](O)([C@H]2OC(=O)c2ccccc2)C3(C)C)CO[C@@H]1CCO", 6.6),
    ("CC(=O)O[C@H]1C(=O)[C@@]2(C)[C@H]([C@H](OC(=O)c3ccccc3)[C@]3(O)C[C@H](OC(=O)[C@H](O)[C@@H](NC(=O)c4ccccc4)c4ccccc4)C(C)=C1C3(C)C)[C@]1(OC(C)=O)CO[C@@H]1C[C@@H]2O", 1.9),
    ("CC(=O)O[C@@]12CO[C@@H]1CCOC/C=C/CO/C1=C(\\C)[C@@H]2[C@H](OC(=O)c2cccc(N=[N+]=[N-])c2)[C@]2(O)C[C@H](OC(=O)[C@H](O)[C@@H](NC(=O)c3ccccc3)c3ccccc3)C(C)=C(C1=O)C2(C)C", 15),
    ("CC(=O)O[C@@]1([C@@H]2/C(C)=C(/O)C(=O)C3=C(C)[C@@H](OC(=O)[C@H](O)[C@H](CC(C)C)NC(=O)OC(C)(C)C)C[C@@](O)([C@H]2OC(=O)c2cccc(N=[N+]=[N-])c2)C3(C)C)CO[C@@H]1CCO", 5.2),
    ("CC(=O)O[C@@]1([C@@H]2/C(C)=C(/O)C(=O)C3=C(C)[C@@H](OC(=O)[C@H](O)[C@@H](NC(=O)c4ccccc4)c4ccccc4)C[C@@](O)([C@H]2OC(=O)c2cccc(N=[N+]=[N-])c2)C3(C)C)CO[C@@H]1CCO", 5.1),
    ("COc1cccc(C(=O)O[C@H]2[C@H]([C@]3(OC(C)=O)CO[C@@H]3CCO)/C(C)=C(/O)C(=O)C3=C(C)[C@@H](OC(=O)[C@H](O)[C@H](CC(C)C)NC(=O)OC(C)(C)C)C[C@]2(O)C3(C)C)c1", 2.9),
]

* * *

Species: Bos taurus
Test: Displacement of Flutax-2 from calf brain microtubule after 20 mins by fluorescence polarization assay relative to paclitaxel
Measured Metric: fold change (FC)

# Query Smiles, Reported Result
rows = [
    ("CC(=O)O[C@@]1([C@@H]2/C(C)=C(/O)C(=O)C3=C(C)[C@@H](OC(=O)[C@H](O)[C@@H](NC(=O)c4ccccc4)c4ccccc4)C[C@@](O)([C@H]2OC(=O)c2ccccc2)C3(C)C)CO[C@@H]1CCO", 0.1),
    ("CC(=O)O[C@@]12CO[C@@H]1CCOC/C=C\\CCO/C1=C(\\C)[C@@H]2[C@H](OC(=O)c2ccccc2)[C@]2(O)C[C@H](OC(=O)[C@H](O)[C@@H](NC(=O)c3ccccc3)c3ccccc3)C(C)=C(C1=O)C2(C)C", 0.96),
]

* * *

Reported IC50 values follow for various compounds
Test system: KB-V1
Test: Cytotoxicity against human KBV1 cells assessed as decrease in cell viability after 48 hrs by MTT assay
Format: functional, cell-based
Applied Conditions: KB-V1, 48 h

# Compound, IC50 [µM]
data = [
    ("CC(=O)O[C@@]12CO[C@@H]1CCOC/C=C/CO/C1=C(\\C)[C@@H]2[C@H](OC(=O)c2cccc(N=[N+]=[N-])c2)[C@]2(O)C[C@H](OC(=O)[C@H](O)[C@@H](NC(=O)c3ccccc3)c3ccccc3)C(C)=C(C1=O)C2(C)C", 0.094),
    ("COc1cccc(C(=O)O[C@H]2[C@H]([C@]3(OC(C)=O)CO[C@@H]3CCO)/C(C)=C(/O)C(=O)C3=C(C)[C@@H](OC(=O)[C@H](O)[C@H](CC(C)C)NC(=O)OC(C)(C)C)C[C@]2(O)C3(C)C)c1", 3.4),
    ("CC(=O)O[C@@]1([C@@H]2/C(C)=C(/O)C(=O)C3=C(C)[C@@H](OC(=O)[C@H](O)[C@H](CC(C)C)NC(=O)OC(C)(C)C)C[C@@](O)([C@H]2OC(=O)c2ccccc2)C3(C)C)CO[C@@H]1CCO", 0.255),
    ("CC(=O)O[C@@]1([C@@H]2/C(C)=C(/O)C(=O)C3=C(C)[C@@H](OC(=O)[C@H](O)[C@@H](NC(=O)c4ccccc4)c4ccccc4)C[C@@](O)([C@H]2OC(=O)c2cccc(N=[N+]=[N-])c2)C3(C)C)CO[C@@H]1CCO", 5.1),
    ("CC(=O)O[C@@]1([C@@H]2/C(C)=C(/O)C(=O)C3=C(C)[C@@H](OC(=O)[C@H](O)[C@H](CC(C)C)NC(=O)OC(C)(C)C)C[C@@](O)([C@H]2OC(=O)c2cccc(N=[N+]=[N-])c2)C3(C)C)CO[C@@H]1CCO", 0.503),
    ("CC(=O)O[C@H]1C(=O)[C@@]2(C)[C@H]([C@H](OC(=O)c3ccccc3)[C@]3(O)C[C@H](OC(=O)[C@H](O)[C@@H](NC(=O)c4ccccc4)c4ccccc4)C(C)=C1C3(C)C)[C@]1(OC(C)=O)CO[C@@H]1C[C@@H]2O [PACLITAXEL]", 9.8),
]

* * *

Species on record: Bos taurus
Test: Displacement of Flutax-2 from calf brain microtubule after 20 mins by fluorescence polarization assay relative to paclitaxel

# Query Smiles, fold change (FC)
rows = [
    ("CC(=O)O[C@@]1([C@@H]2/C(C)=C(/O)C(=O)C3=C(C)[C@@H](OC(=O)[C@H](O)[C@@H](NC(=O)c4ccccc4)c4ccccc4)C[C@@](O)([C@H]2OC(=O)c2cccc(N=[N+]=[N-])c2)C3(C)C)CO[C@@H]1CCO", 1.18),
    ("CC(=O)O[C@@]12CO[C@@H]1CCOC/C=C/CCCO/C1=C(\\C)[C@@H]2[C@H](OC(=O)c2ccccc2)[C@]2(O)C[C@H](OC(=O)[C@H](O)[C@@H](NC(=O)c3ccccc3)c3ccccc3)C(C)=C(C1=O)C2(C)C", 0.17),
    ("CC(=O)O[C@@]1([C@@H]2/C(C)=C(/O)C(=O)C3=C(C)[C@@H](OC(=O)[C@H](O)[C@H](CC(C)C)NC(=O)OC(C)(C)C)C[C@@](O)([C@H]2OC(=O)c2ccccc2)C3(C)C)CO[C@@H]1CCO", 0.132),
    ("CC(=O)O[C@@]12CO[C@@H]1CCOC/C=C/CO/C1=C(\\C)[C@@H]2[C@H](OC(=O)c2cccc(N=[N+]=[N-])c2)[C@]2(O)C[C@H](OC(=O)[C@H](O)[C@@H](NC(=O)c3ccccc3)c3ccccc3)C(C)=C(C1=O)C2(C)C", 1.15),
]
